Target: monomeric cyno Tim3-ECD (cynomolgus)
Experiment: ELISA on cynomolgus Tim3
MEASURE: Inflexion point (ng/mL)
Your answer should be a plain number; it is taken to be in ng/mL.

Return reported Inflexion point; argument: anti-TIM3 antibody Tim3_0016 variant (Tim3_0018) (antibody, V domains shown, Mouse monoclonal from hybridoma; also called TIM3-0016 variant (0018); Tim3_0016 variant 0018-A488) VH: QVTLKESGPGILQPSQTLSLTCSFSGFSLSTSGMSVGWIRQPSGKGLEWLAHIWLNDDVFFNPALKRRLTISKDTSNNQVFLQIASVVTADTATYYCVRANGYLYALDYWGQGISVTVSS VL: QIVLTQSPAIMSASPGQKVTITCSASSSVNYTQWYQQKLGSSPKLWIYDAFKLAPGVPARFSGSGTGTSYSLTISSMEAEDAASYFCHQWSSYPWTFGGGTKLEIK
14.6
